assay: Inhibitor binding assay of SEQ ID NO 3 variants, Inhibitor 1, in Model B detergent; format: biochemical; conditions: in Model B relative to SEQ ID NO 3 comprising S173P + S175P + F180Y; relative Ki, IF>1.0 = lower Ki
Output satisfied for inhibitor 1 binding constant improvement factors (IF) not less than 2; output not satisfied otherwise.

Example entries begin here.
Molecule: S173P + S175P + F180Y + L184W: protease variant of SEQ ID NO 3 (protein, listed as Bacillus sp.) AVPSTQTPWGIKSIYNDQSITKTTGGSGIKVAVLDTGVYTSHLDLAGSAEQCKDFTQSNPLVDGSCTDRQGHGTHVAGTVLAHGGSNGQGVYGVAPQAKLWAYKVLGDNGSGYSDDIAAAIRHVADEASRTGSKVVINMSLGSSAKDSLIASAVDYAYGKGVLIVAAAGNSGPGPNTIGYPGGWVNAVAVAALENVQQNGTYRVADFSSRGNPATAGDYIIQERDIEVSAPGASVESTWYTGGYNTISGTSMATPHVAGLAAKIWSANTSLSHSQLRTELQNRAKVYDIKGGIGAGTGDDYASGFGYPRVK
Group label: satisfied
--
Molecule: K146N + S173P + S175P + F180Y: protease variant of SEQ ID NO 3 (protein, listed as Bacillus sp.) AVPSTQTPWGIKSIYNDQSITKTTGGSGIKVAVLDTGVYTSHLDLAGSAEQCKDFTQSNPLVDGSCTDRQGHGTHVAGTVLAHGGSNGQGVYGVAPQAKLWAYKVLGDNGSGYSDDIAAAIRHVADEASRTGSKVVINMSLGSSANDSLIASAVDYAYGKGVLIVAAAGNSGPGPNTIGYPGGLVNAVAVAALENVQQNGTYRVADFSSRGNPATAGDYIIQERDIEVSAPGASVESTWYTGGYNTISGTSMATPHVAGLAAKIWSANTSLSHSQLRTELQNRAKVYDIKGGIGAGTGDDYASGFGYPRVK
Group label: not satisfied
--
Molecule: S111I + S173P + S175P + F180Y: protease variant of SEQ ID NO 3 (protein, listed as Bacillus sp.) AVPSTQTPWGIKSIYNDQSITKTTGGSGIKVAVLDTGVYTSHLDLAGSAEQCKDFTQSNPLVDGSCTDRQGHGTHVAGTVLAHGGSNGQGVYGVAPQAKLWAYKVLGDNGIGYSDDIAAAIRHVADEASRTGSKVVINMSLGSSAKDSLIASAVDYAYGKGVLIVAAAGNSGPGPNTIGYPGGLVNAVAVAALENVQQNGTYRVADFSSRGNPATAGDYIIQERDIEVSAPGASVESTWYTGGYNTISGTSMATPHVAGLAAKIWSANTSLSHSQLRTELQNRAKVYDIKGGIGAGTGDDYASGFGYPRVK
Group label: not satisfied
--
Molecule: K146F + S173P + S175P + F180Y: protease variant of SEQ ID NO 3 (protein, listed as Bacillus sp.) AVPSTQTPWGIKSIYNDQSITKTTGGSGIKVAVLDTGVYTSHLDLAGSAEQCKDFTQSNPLVDGSCTDRQGHGTHVAGTVLAHGGSNGQGVYGVAPQAKLWAYKVLGDNGSGYSDDIAAAIRHVADEASRTGSKVVINMSLGSSAFDSLIASAVDYAYGKGVLIVAAAGNSGPGPNTIGYPGGLVNAVAVAALENVQQNGTYRVADFSSRGNPATAGDYIIQERDIEVSAPGASVESTWYTGGYNTISGTSMATPHVAGLAAKIWSANTSLSHSQLRTELQNRAKVYDIKGGIGAGTGDDYASGFGYPRVK
Group label: satisfied
--
Molecule: S173P + S175P + F180Y + L184Y: protease variant of SEQ ID NO 3 (protein, listed as Bacillus sp.) AVPSTQTPWGIKSIYNDQSITKTTGGSGIKVAVLDTGVYTSHLDLAGSAEQCKDFTQSNPLVDGSCTDRQGHGTHVAGTVLAHGGSNGQGVYGVAPQAKLWAYKVLGDNGSGYSDDIAAAIRHVADEASRTGSKVVINMSLGSSAKDSLIASAVDYAYGKGVLIVAAAGNSGPGPNTIGYPGGYVNAVAVAALENVQQNGTYRVADFSSRGNPATAGDYIIQERDIEVSAPGASVESTWYTGGYNTISGTSMATPHVAGLAAKIWSANTSLSHSQLRTELQNRAKVYDIKGGIGAGTGDDYASGFGYPRVK
Group label: satisfied
--
Molecule: S173P + S175P + F180Y + L184D: protease variant of SEQ ID NO 3 (protein, listed as Bacillus sp.) AVPSTQTPWGIKSIYNDQSITKTTGGSGIKVAVLDTGVYTSHLDLAGSAEQCKDFTQSNPLVDGSCTDRQGHGTHVAGTVLAHGGSNGQGVYGVAPQAKLWAYKVLGDNGSGYSDDIAAAIRHVADEASRTGSKVVINMSLGSSAKDSLIASAVDYAYGKGVLIVAAAGNSGPGPNTIGYPGGDVNAVAVAALENVQQNGTYRVADFSSRGNPATAGDYIIQERDIEVSAPGASVESTWYTGGYNTISGTSMATPHVAGLAAKIWSANTSLSHSQLRTELQNRAKVYDIKGGIGAGTGDDYASGFGYPRVK
Group label: satisfied

Now look at this entry.
Dear colleague, could you confirm whether S173P + S175P + F180Y + G182S: protease variant of SEQ ID NO 3 (protein, listed as Bacillus sp.) AVPSTQTPWGIKSIYNDQSITKTTGGSGIKVAVLDTGVYTSHLDLAGSAEQCKDFTQSNPLVDGSCTDRQGHGTHVAGTVLAHGGSNGQGVYGVAPQAKLWAYKVLGDNGSGYSDDIAAAIRHVADEASRTGSKVVINMSLGSSAKDSLIASAVDYAYGKGVLIVAAAGNSGPGPNTIGYPSGLVNAVAVAALENVQQNGTYRVADFSSRGNPATAGDYIIQERDIEVSAPGASVESTWYTGGYNTISGTSMATPHVAGLAAKIWSANTSLSHSQLRTELQNRAKVYDIKGGIGAGTGDDYASGFGYPRVK has inhibitor 1 binding constant improvement factors (IF) at or above 2? not satisfied
